The listing below reports IC50 for molecules tested on IKKε (Homo sapiens (Human)).
Sequence (Q14164 whole entry): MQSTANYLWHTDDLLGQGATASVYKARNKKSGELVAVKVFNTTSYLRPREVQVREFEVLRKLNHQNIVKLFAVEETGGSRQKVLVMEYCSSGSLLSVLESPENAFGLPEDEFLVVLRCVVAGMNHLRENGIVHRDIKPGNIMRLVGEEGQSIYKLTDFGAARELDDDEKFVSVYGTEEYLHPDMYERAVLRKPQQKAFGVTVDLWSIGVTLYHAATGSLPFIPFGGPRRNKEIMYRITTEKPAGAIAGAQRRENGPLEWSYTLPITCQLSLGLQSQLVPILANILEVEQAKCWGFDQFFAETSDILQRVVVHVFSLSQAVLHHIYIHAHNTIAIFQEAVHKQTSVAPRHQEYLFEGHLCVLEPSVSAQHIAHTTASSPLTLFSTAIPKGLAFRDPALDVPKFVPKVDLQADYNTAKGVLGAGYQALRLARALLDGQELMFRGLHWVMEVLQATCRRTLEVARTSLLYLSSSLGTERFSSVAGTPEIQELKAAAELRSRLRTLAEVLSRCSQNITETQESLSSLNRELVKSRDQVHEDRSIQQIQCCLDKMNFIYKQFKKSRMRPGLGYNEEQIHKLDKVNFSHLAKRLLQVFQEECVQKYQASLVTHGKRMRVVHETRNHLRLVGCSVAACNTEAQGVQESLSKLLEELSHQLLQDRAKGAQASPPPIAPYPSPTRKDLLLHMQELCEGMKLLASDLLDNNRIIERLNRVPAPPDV

molecule	experimental-target	IC50
CN1CCN(Cc2ccc(Nc3sc(-c4ccncc4)nc3C(N)=O)cc2)CC1 [Compound A14]	IKKε (Homo sapiens (Human))	420 nM
CC(=O)N1CCN(Cc2ccc(C(=O)Nc3sc(-c4ccncc4)nc3C(N)=O)cc2)CC1 [Compound A27]	IKKε (Homo sapiens (Human))	100 nM
NC(=O)c1nc(-c2ccncc2)sc1NC(=O)c1ccsc1 [Compound A65]	IKKε (Homo sapiens (Human))	480 nM
CN(C)Cc1ccc(C(=O)Nc2sc(-c3ccncc3)nc2C(N)=O)cc1 [Compound A40]	IKKε (Homo sapiens (Human))	280 nM
CN1CCN(Cc2ccc(C(=O)Nc3sc(-c4ccnc(C(F)(F)F)c4)nc3C(N)=O)cc2)CC1 [Compound A8]	IKKε (Homo sapiens (Human))	2100 nM
CN1CCN(Cc2ccc(C(=O)Nc3sc(-c4ccncc4Br)nc3C(N)=O)cc2)CC1 [Compound A18]	IKKε (Homo sapiens (Human))	190 nM
CN1CCN(Cc2ccc(C(=O)Nc3sc(-c4ccnc(F)c4)nc3C(N)=O)cc2)CC1 [Compound A6]	IKKε (Homo sapiens (Human))	540 nM
CN1CCN(Cc2ccc(C(=O)Nc3sc(-c4ccncc4C(F)(F)F)nc3C(N)=O)cc2)CC1 [Compound A17]	IKKε (Homo sapiens (Human))	140 nM
NC(=O)c1nc(-c2ccncc2)sc1NC(=O)c1ccc(N)cc1 [Compound A58]	IKKε (Homo sapiens (Human))	180 nM
NC(=O)c1nc(-c2ccncc2)sc1NC(=O)c1ccco1 [Compound A60]	IKKε (Homo sapiens (Human))	6300 nM
